Assay: inhibitors of the yeast RAM network, pilot screen, dse1pr::URA3 reporter, 5-FOA selection (AID 869);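 note: 0% = DMSO wells with no growth and 100% = 10 µM 1-NA-PP1 with full growth; RAM network block rescues cells from 5-FOA so hits raise OD615 growth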
Conditions: S. cerevisiae dse1pr::URA3 5-FOA growth, OD615, 2 d; at 10 µM; stronger effect = higher value; strain carries analog-sensitive mutant Cbk1 kinase
Readout: inhibition (%)

{"Compound": "Cc1cc(C)nc(SCCCn2c(=O)[nH]c3ccccc32)n1", "Readout": "inhibition", "Units symbol": "%", "Observed value": 1.02}
{"Compound": "CCOC(=O)c1ccc(NC(=O)CSc2nc3c(c(=O)n2C)SC(C)C3)cc1 (stereo unspecified)", "Readout": "inhibition", "Units symbol": "%", "Observed value": 0.975}
{"Compound": "C1CCc2c(nc3nnnn3c2N2CCOCC2)C1", "Readout": "inhibition", "Units symbol": "%", "Observed value": 1.07}
{"Compound": "CCOc1ccccc1C1CC(c2ccc(F)cc2)Nc2nc(N)nn21 (stereo unspecified)", "Readout": "inhibition", "Units symbol": "%", "Observed value": 0.785}
{"Compound": "O=C(O)CN(Cc1ccco1)S(=O)(=O)c1ccccc1", "Readout": "inhibition", "Units symbol": "%", "Observed value": 2.67}
{"Compound": "Cc1cccc(CSc2nnc(Cn3c(=O)sc4ccccc43)n2C)c1", "Readout": "inhibition", "Units symbol": "%", "Observed value": -0.065}

* * *

Experiment: inhibitors of the yeast RAM network, pilot screen, dse1pr::URA3 reporter, 5-FOA selection (AID 869);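 note: 0% = DMSO wells with no growth and 100% = 10 µM 1-NA-PP1 with full growth; RAM network block rescues cells from 5-FOA so hits raise OD615 growth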
Details: S. cerevisiae dse1pr::URA3 5-FOA growth, OD615, 2 d; at 10 µM; stronger effect = higher value; strain carries analog-sensitive mutant Cbk1 kinase
Each entry gets 0 if its inhibition stays under 1%, and 1 if its inhibition is 1% or above.

{"Compound": "CCOc1ccccc1NC(=O)CN1C(=O)COc2ccc(Cl)cc21", "Class": 1}
{"Compound": "CCN(CC)C(=O)Nc1cnc2ccccc2c1", "Class": 0}
{"Compound": "N#CC1=C2SCN(c3ccccc3)CN2C(=O)CC1c1c(Cl)cccc1Cl (stereo unspecified)", "Class": 1}
{"Compound": "COCCCN1Cc2cccc(C(=O)O)c2C1=O", "Class": 0}
{"Compound": "CCOCCCNC(=O)CN1C(=O)CSc2ccccc21", "Class": 1}
{"Compound": "O=C(CSc1nnc(Cc2cc(=O)[nH]c(=O)[nH]2)n1-c1ccc(F)cc1)NC1CCCC1", "Class": 0}
{"Compound": "COc1cc(NS(=O)(=O)c2ccc(NC(=O)C34CC5CC(CC(C5)C3)C4)cc2)ncn1", "Class": 1}
{"Compound": "COC(=O)c1c(NC(=O)CCN2CCOCC2)sc2c1CCCC2", "Class": 0}
{"Compound": "COc1cccc(CN2CCNC(=O)C2CC(=O)O)c1OC (stereo unspecified)", "Class": 1}
{"Compound": "Cc1cc(C)n(-c2nc3ccccc3c3nc(C)nn23)n1", "Class": 0}
{"Compound": "COc1ccc(N2Cc3cccc(C(=O)NC(C)CCc4ccco4)c3C2=O)cc1 (stereo unspecified)", "Class": 1}

* * *

Assay: OD615 S. cerevisiae growth inhibition, permissive medium, pilot counter-assay, permissive growth control for S. cerevisiae lifespan shortening project (AID 705)
Conditions: OD615, 24 h, at 10 µM, stronger effect = higher value
As shown below, each of these compounds has a reported growth inhibition value.

{"Compound": "O=c1c(/C=N/O)c(Nc2ccccc2)nc2ccccn12", "growth inhibition (%)": -10.8}
{"Compound": "COc1ccc(OCc2nnc3n2N=C(c2ccc(OC)cc2)CS3)cc1", "growth inhibition (%)": 7.92}
{"Compound": "COC(=O)c1cccc(NC(=O)C(C)N2C(=O)c3ccccc3C2=O)c1 (stereo unspecified)", "growth inhibition (%)": -16.2}
{"Compound": "CCC(C)NC(=O)C1CCC(=O)N(c2ccc3c(c2)OCO3)C1c1ccc(OC)cc1 (stereo unspecified)", "growth inhibition (%)": 0.49}
{"Compound": "O=C(Cn1ncc2c(=O)oc3ccccc3c21)N1CCc2ccccc2C1", "growth inhibition (%)": -12.5}
{"Compound": "c1cncc(-c2nc3ccccn3c2Nc2ccc3c(c2)OCCO3)c1", "growth inhibition (%)": -1.86}
{"Compound": "CCOc1ccc(N(CC(=O)Nc2cccc(F)c2)S(=O)(=O)c2c(C)noc2C)cc1", "growth inhibition (%)": -3.51}
{"Compound": "CCc1cc(C(=O)COc2ccccc2F)c(O)cc1O", "growth inhibition (%)": -11.9}
{"Compound": "Cc1cc(C)cc(Nc2cc(C)nc3nc(C)nn23)c1", "growth inhibition (%)": -3.56}
{"Compound": "CC1(C)CC(=O)N(CC(=O)N2CCN(c3ncccn3)CC2)c2ccccc2S1(=O)=O", "growth inhibition (%)": -6.82}
{"Compound": "COCC(C)NC(=O)c1cc(-c2ccc(O)cc2)on1 (stereo unspecified)", "growth inhibition (%)": -1.88}

Sourced from PubChem BioAssay
